tested on: KP-4 (Pancreatic Carcinoma); assay: combination Emax (second highest fraction inhibited in the dose matrix, 72 h); higher = more inhibition; extreme values may be limits of the assay
Each entry below lists one item and its recorded combination Emax value.

Compound: NC1(C(=O)N[C@@H](CCO)c2ccc(Cl)cc2)CCN(c2ncnc3[nH]ccc23)CC1 [Capivasertib] + CC(C)n1c(=O)n(C)c2cnc3cc(F)c(-c4ccc(OCCCN5CCCCC5)nc4)cc3c21 [AZD1390] (first compound max 10 µM, 7x7, partner max 0.3 µM)
Study system: KP-4 (Pancreatic Carcinoma)
combination Emax: 0.355

Compound: COc1nnc2ccc(N3CCC(c4ccc(OCCN5CCN(C)C(=O)[C@H]5C)cc4)CC3)nn12 [AZD5153] + CC1(C)CCC(CN2CCN(c3ccc(C(=O)NS(=O)(=O)c4ccc(NCC5CCOCC5)c([N+](=O)[O-])c4)c(Oc4cnc5[nH]ccc5c4)c3)CC2)=C(c2ccc(Cl)cc2)C1 [Venetoclax] (first compound max 1 µM, 7x7, partner max 1 µM)
Study system: KP-4 (Pancreatic Carcinoma)
combination Emax: 0.526

Compound: Cn1cnc2c(F)c(Nc3ccc(Br)cc3Cl)c(C(=O)NOCCO)cc21 [Selumetinib] + C[C@@H]1COCCN1C2=NC(=NC(=C2)C3(CC3)[S@](=N)(=O)C)C4=C5C=CNC5=NC=C4 [AZD6738] (first compound max 10 µM, 7x7, partner max 10 µM)
Study system: KP-4 (Pancreatic Carcinoma)
combination Emax: 0.506

----------
test system: SK-N-SH (Neuroblastoma); experiment: Bliss excess, mean over the matrix (fraction); higher = more synergy
Each entry below lists one item and its recorded Bliss excess value.

Compound: NC1(C(=O)N[C@@H](CCO)c2ccc(Cl)cc2)CCN(c2ncnc3[nH]ccc23)CC1 [Capivasertib] + CC(C)n1c(=O)n(C)c2cnc3cc(F)c(-c4ccc(OCCCN5CCCCC5)nc4)cc3c21 [AZD1390] (first compound max 10 µM, 7x7, partner max 0.3 µM)
Study system: SK-N-SH (Neuroblastoma)
Bliss excess: -0.0626
//
Compound: CC1(C)CCC(CN2CCN(c3ccc(C(=O)NS(=O)(=O)c4ccc(NCC5CCOCC5)c([N+](=O)[O-])c4)c(Oc4cnc5[nH]ccc5c4)c3)CC2)=C(c2ccc(Cl)cc2)C1 [Venetoclax] + CS(=O)(=O)CCNCc1ccc(-c2ccc3ncnc(Nc4ccc(OCc5cccc(F)c5)c(Cl)c4)c3c2)o1 [Lapatinib] (first compound max 1 µM, 7x7, partner max 10 µM)
Study system: SK-N-SH (Neuroblastoma)
Bliss excess: 0.008
//
Compound: CC1(C)CCC(CN2CCN(c3ccc(C(=O)NS(=O)(=O)c4ccc(NCC5CCOCC5)c([N+](=O)[O-])c4)c(Oc4cnc5[nH]ccc5c4)c3)CC2)=C(c2ccc(Cl)cc2)C1 [Venetoclax] + C=CCn1c(=O)c2cnc(Nc3ccc(N4CCN(C)CC4)cc3)nc2n1-c1cccc(C(C)(C)O)n1 [AZD1775] (first compound max 1 µM, partner max 1 µM)
Study system: SK-N-SH (Neuroblastoma)
Bliss excess: 0.0526
//
Compound: CN(CCO)CC[C@H](CSc1ccccc1)Nc1ccc(S(=O)(=O)NC(=O)c2ccc(N3CCC([C@@H](O)c4ccccc4-c4ccc(Cl)cc4)CC3)cc2)cc1S(=O)(=O)C(F)(F)F [AZD4320] + Cn1cnc2c(F)c(Nc3ccc(Br)cc3Cl)c(C(=O)NOCCO)cc21 [Selumetinib] (first compound max 1 µM, 7x7, partner max 3 µM)
Study system: SK-N-SH (Neuroblastoma)
Bliss excess: 0.0457
//
Compound: Cc1c2c(nn1C)CSCc1cc(n(C)n1)CSc1cc(c3ccccc3c1)OCCCc1c(C(=O)O)n(C)c3c-2c(Cl)ccc13 [AZD5991] + C[C@@H](Nc1cc(F)cc(F)c1)c1cc(C(=O)N(C)C)cc2c(=O)cc(N3CCOCC3)oc12 [AZD8186] (first compound max 1 µM, 7x7, partner max 3 µM)
Study system: SK-N-SH (Neuroblastoma)
Bliss excess: -0.0094
//
Compound: Cc1nc(-c2cn3c(n2)-c2ccc(-c4cnn(C(C)(C)C(N)=O)c4)cc2OCC3)n(C(C)C)n1 [Taselisib] + O=C(Nc1ccc2[nH]nc(-c3ccncc3)c2c1)[C@@H]1CCN(CC(=O)N2CCN(c3ccc(-c4ncccn4)cc3)CC2)C1 [SCH772984] (first compound max 10 µM, 7x7, partner max 5 µM)
Study system: SK-N-SH (Neuroblastoma)
Bliss excess: 0.0498

----------
system: BxPC-3 (Pancreatic Carcinoma); assay: Bliss excess, mean over the matrix (fraction); higher = more synergy

Molecule: O=C(c1cc(Cc2n[nH]c(=O)c3ccccc23)ccc1F)N1CCN(C(=O)C2CC2)CC1 [Olaparib] + CN(CC[C@H](CSC1=CC=CC=C1)NC2=C(C=C(C=C2)S(=O)(=O)NC(=O)C3=CC=C(C=C3)N4CCC(CC4)[C@H](C5=CC=CC=C5C6=CC=C(C=C6)Cl)O)S(=O)(=O)C(F)(F)F)CCO [AZD4320] (first compound max 10 µM, 7x7, partner max 1 µM)
Study system: BxPC-3 (Pancreatic Carcinoma)
Bliss excess: -0.0424
//
Molecule: Cc1c2c(nn1C)CSCc1cc(n(C)n1)CSc1cc(c3ccccc3c1)OCCCc1c(C(=O)O)n(C)c3c-2c(Cl)ccc13 [AZD5991] + C1CN(CCC1(C(=O)N[C@@H](CCO)C2=CC=C(C=C2)Cl)N)C3=NC=NC4=C3C=CN4 [Capivasertib] (first compound max 1 µM, 7x7, partner max 3 µM)
Study system: BxPC-3 (Pancreatic Carcinoma)
Bliss excess: -0.0005
//
Molecule: Cn1cnc2c(F)c(Nc3ccc(Br)cc3Cl)c(C(=O)NOCCO)cc21 [Selumetinib] + CC(C)n1c(=O)n(C)c2cnc3cc(F)c(-c4ccc(OCCCN5CCCCC5)nc4)cc3c21 [AZD1390] (first compound max 10 µM, 7x7, partner max 0.3 µM)
Study system: BxPC-3 (Pancreatic Carcinoma)
Bliss excess: -0.0518

----------
system: NB1 (Neuroblastoma); assay: Bliss excess, mean over the matrix (fraction); higher = more synergy
Each entry below lists one item and its recorded Bliss excess value.

Compound: COc1cccc(OCCCN)c1-c1cc(Nc2cnc(C#N)cn2)n[nH]1 [Prexasertib] + O=C(c1cc(Cc2n[nH]c(=O)c3ccccc23)ccc1F)N1CCN(C(=O)C2CC2)CC1 [Olaparib] (first compound max 1 µM, 7x7, partner max 10 µM)
Bliss excess: -0.0411
//
Compound: CN(CCO)CC[C@H](CSc1ccccc1)Nc1ccc(S(=O)(=O)NC(=O)c2ccc(N3CCC([C@@H](O)c4ccccc4-c4ccc(Cl)cc4)CC3)cc2)cc1S(=O)(=O)C(F)(F)F [AZD4320] + C1CN(CCC1(C(=O)N[C@@H](CCO)C2=CC=C(C=C2)Cl)N)C3=NC=NC4=C3C=CN4 [Capivasertib] (first compound max 1 µM, 7x7, partner max 3 µM)
Bliss excess: -0.0031
//
Compound: CN(CCO)CC[C@H](CSc1ccccc1)Nc1ccc(S(=O)(=O)NC(=O)c2ccc(N3CCC([C@@H](O)c4ccccc4-c4ccc(Cl)cc4)CC3)cc2)cc1S(=O)(=O)C(F)(F)F [AZD4320] + Cn1cnc2c(F)c(Nc3ccc(Br)cc3Cl)c(C(=O)NOCCO)cc21 [Selumetinib] (first compound max 1 µM, 7x7, partner max 3 µM)
Bliss excess: 0.0308
//
Compound: Cc1c2c(nn1C)CSCc1cc(n(C)n1)CSc1cc(c3ccccc3c1)OCCCc1c(C(=O)O)n(C)c3c-2c(Cl)ccc13 [AZD5991] + C[C@@H]1COCCN1C2=NC(=NC(=C2)C3(CC3)[S@](=N)(=O)C)C4=C5C=CNC5=NC=C4 [AZD6738] (first compound max 1 µM, 7x7, partner max 10 µM)
Bliss excess: 0.0343
//
Compound: Cc1c2c(nn1C)CSCc1cc(n(C)n1)CSc1cc(c3ccccc3c1)OCCCc1c(C(=O)O)n(C)c3c-2c(Cl)ccc13 [AZD5991] + Cc1cc2ncnn2cc1Nc1ncc2c(n1)n(C1CCOCC1)c(=O)n2C [AZD7648] (first compound max 1 µM, 7x7, partner max 10 µM)
Bliss excess: -0.0197

----------
system: LS-1034 (Colorectal Carcinoma); test: Bliss excess, mean over the matrix (fraction); higher = more synergy

Compound: C[C@@H]1COCCN1c1cc(C2([S@](C)(=N)=O)CC2)nc(-c2ccnc3[nH]ccc23)n1 [AZD6738] + Nc1ccn([C@@H]2O[C@H](CO)[C@@H](O)C2(F)F)c(=O)n1 [Gemcitabine] (first compound max 10 µM, 7x7, partner max 0.3 µM)
Study system: LS-1034 (Colorectal Carcinoma)
Bliss excess: 0.0853
//
Compound: NC1(C(=O)N[C@@H](CCO)c2ccc(Cl)cc2)CCN(c2ncnc3[nH]ccc23)CC1 [Capivasertib] + CC(=O)c1c(C)c2cnc(Nc3ccc(N4CCNCC4)cn3)nc2n(C2CCCC2)c1=O [Palbociclib] (first compound max 10 µM, 7x7, partner max 10 µM)
Study system: LS-1034 (Colorectal Carcinoma)
Bliss excess: -0.0157
//
Compound: CC1(C)CCC(CN2CCN(c3ccc(C(=O)NS(=O)(=O)c4ccc(NCC5CCOCC5)c([N+](=O)[O-])c4)c(Oc4cnc5[nH]ccc5c4)c3)CC2)=C(c2ccc(Cl)cc2)C1 [Venetoclax] + Cn1cnc2c(F)c(Nc3ccc(Br)cc3Cl)c(C(=O)NOCCO)cc21 [Selumetinib] (first compound max 1 µM, 7x7, partner max 3 µM)
Study system: LS-1034 (Colorectal Carcinoma)
Bliss excess: -0.0644
